The reported numbers originate from patent US20250228848A1.

- Assayed target: KRas G12C (Homo sapiens, UniProt P01116, G12C)
- Sequence (P01116 1-188 isoform P01116-2 G12C): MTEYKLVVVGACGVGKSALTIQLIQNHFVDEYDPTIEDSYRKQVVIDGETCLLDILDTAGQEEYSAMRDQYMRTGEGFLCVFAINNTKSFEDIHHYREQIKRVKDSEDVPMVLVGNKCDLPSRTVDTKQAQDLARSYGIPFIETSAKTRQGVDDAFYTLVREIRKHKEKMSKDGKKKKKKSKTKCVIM
- Protocol notes: KRas G12C Probe Occupancy TR-FRET Assay
- Type: binding
- Stated conditions: 60 minutes incubation of the inhibitor with His-tagged KRas G12C before KRas Probe; read-out: IC50 (nM) @ 60 min
Value type: IC50 (nM)
Respond numerically; units are nM and should not be typed.

Here's what some known entries look like.
| Compound | Reported result |
| --- | --- |
| C=CC(=O)N1CCN2C(=O)c3cc(F)c(-c4cccc5sc(N)c(C#N)c45)c(Cl)c3OCC[C@H]2C1 (single isomer, unassigned) [Example 3] | 843 |
| C=CC(=O)N1CCN2C(=O)c3cc(Cl)c(-c4ccc(F)c5sc(N)nc45)c(Cl)c3OCC[C@H]2C1 (single isomer, unassigned) [Example 1] | 16000 |
| C=CC(=O)N1CCN2C(=O)c3cc(F)c(-c4ccc(F)c5sc(N)c(C#N)c45)c(Cl)c3OC[C@H]2C1 (single isomer, unassigned) [Example 7] | 17900 |

Below: the item to evaluate.
Which IC50 value is on record for C=CC(=O)N1CCN2C(=O)c3cc(F)c(-c4ccc(F)c5sc(N)c(C#N)c45)c(Cl)c3OCC[C@H]2C1 (single isomer, unassigned) [Example 5] ?
3250
